- STUDY TARGET: Focal Adhesion Kinase (FAK) (Homo sapiens)
- Sequence (Q05397 384-706): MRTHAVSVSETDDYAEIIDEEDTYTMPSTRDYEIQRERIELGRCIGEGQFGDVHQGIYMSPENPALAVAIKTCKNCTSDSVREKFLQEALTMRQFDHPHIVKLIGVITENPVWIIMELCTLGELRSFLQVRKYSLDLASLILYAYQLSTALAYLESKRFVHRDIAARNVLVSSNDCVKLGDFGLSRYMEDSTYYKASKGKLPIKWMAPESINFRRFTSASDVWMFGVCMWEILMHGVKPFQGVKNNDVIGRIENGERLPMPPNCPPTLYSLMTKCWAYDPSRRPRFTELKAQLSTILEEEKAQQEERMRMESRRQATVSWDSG
- TEST DESCRIPTION: FAK assay system (Focal Adhesion Kinase inhibition)
- Type: biochemical
- CONDITION PARAMETERS: read-out: FAK IC50
READOUT NAME: IC50 (nM)

I: CNC(=O)c1ccccc1Nc1nc(Nc2ccc(N3CCOCC3)cc2OC)ncc1Br
II: CCCS(=O)(=O)c1ccccc1Nc1nc(Nc2ccc(N3CCC(N4CCCCC4)CC3)cc2OC)ncc1Cl
III: CNC(=O)c1cc(N2CCC(N3CCCCC3)CC2)ccc1Nc1nc(Nc2ccc(F)cc2OC)ncc1Cl
IV: COc1c(Nc2ncc(Cl)c(Nc3ccccc3S(=O)(=O)NC(C)C)n2)ccc(OC2CCN(C)CC2)c1F
V: CCNC(=O)c1cc(F)ccc1Nc1nc(Nc2ccc(N3CCOCC3)cc2OC)ncc1Cl
Exam item: Rank the listed compounds, smallest IC50 first and largest last. Please, when replying, give the labels in the order that was requested.
Marked response: II, I, III, V, IV
(II: 1.4 nM, I: 2.4 nM, III: 9.5 nM, V: 37 nM, IV: 84 nM)
